- System: DU-145
- EXPERIMENTAL_DETAILS: NCI tumour cell line growth inhibition, 48 h
Active and inactive are the calls of the source. Rule as the data show it: active = GI50 up to about 1.1 µM and inactive = higher.
Please reply with one of these outcomes: active, inactive

Q) Hi, sorry to bother you, what did the test record for O=c1c(C(c2ccc(/C=C/c3ccccc3)cc2)c2c(O)oc3cc(O)ccc3c2=O)c(O)oc2cc(O)ccc12 ?
A) inactive

Q) What was the test verdict on COc1cc(=O)n2c3ccccc3n(C)c2c1C#N ?
A) inactive

Q) Outcome logged for Cc1nc2ccc(/N=N/N(C)C)cc2[nH]1 in this assay:
A) inactive

Q) Hi, sorry to bother you, what did the test record for O=C1N[C@@H]2O[C@H](CNC(=O)c3cc(Br)c[nH]3)C[C@]2(O)N1.O=C1N[C@H]2O[C@H](CNC(=O)c3cc(Br)c[nH]3)C[C@@]2(O)N1 ?
A) inactive

Q) Per the assay record, what outcome was assigned to CC1CC2OC(=O)C(C)C2CC2(C)C(OC3OC(CO)C(O)C(O)C3O)OCCC12 (stereo unspecified) ?
A) inactive

Q) Check the results log: what was the call for CCC1=CC(OCc2ccccc2)C(CCN(Cc2ccccc2)C(=O)OCc2ccccc2)C1 (stereo unspecified) ?
A) inactive

Q) Tell me the assay call for Cc1ccc(NC(=O)NC(=O)c2ccc([N+](=O)[O-])cc2[N+](=O)[O-])cc1Oc1ncc(Cl)cn1 please.
A) active

Q) What call does the record list for CC1(C)CC(=O)C(CCC(=O)/C=C/c2ccccc2)C(=O)C1 ?
A) inactive

Q) // return assay outcome for C#CCOC(=O)C(N)CCSC (stereo unspecified)
A) inactive

Q) Returns: the outcome recorded for Oc1c(CN2CCCC2)ccc2cccnc12 in this assay.
A) inactive

Q) // return assay outcome for Cc1c(C)c(C)c(CSC(=N)N)c(C)c1C
A) inactive

Q) Check the results log: what was the call for C(=C\N1CCCCC1)/c1nnnn1-c1ccccc1 ?
A) inactive

Q) Field: outcome | Entry: Cc1ccccc1/N=N/c1ccc(/N=N/c2c(O)ccc3ccccc23)c(C)c1 [SCARLET RED]
A) inactive

Q) What is the recorded call for this compound in the test? COc1cc2c(cc1O)C1CC(CC3CCCCN31)OC(=O)/C=C\c1ccc(O)c-2c1 (stereo unspecified)
A) inactive

Q) Hello, I am checking results. What call was entered for CC(C)(CCCCC(C)(C)C1NC(=O)N1)C1NC(=O)N1 ?
A) inactive

Q) What outcome does the record of this test show for Nc1nc(Cl)cc(NCC2(CO)CCCC2)n1 ?
A) inactive

Q) Each compound tested received a call. Report the one for CC(C)(C)N(Cc1ccc2c(c1)OCO2)C(=O)/C=C\Sc1ccccc1 .
A) inactive

Q) Outcome logged for O=C1c2ccccc2C2(c3ccc(F)cc3)NCCN12 (stereo unspecified) in this assay:
A) inactive

Q) Hi, sorry to bother you, what did the test record for O=[N+]([O-])/C(Cl)=C(\NCCN/C(C(Cl)=C(Cl)Cl)=C(/Cl)[N+](=O)[O-])C(Cl)=C(Cl)Cl ?
A) inactive

Q) Record request — test call for NC(CC1=CS(=O)(=O)c2ccc(Cl)cc21)C(=O)O (stereo unspecified)
A) inactive

Q) # outcome recorded in this test, key = CCCc1c(-c2ccccc2)[nH]c2ccccc2c1=O
A) inactive
